experiment: RP, Phenomenex Kinetex EVO C18, 100 × 2.1 mm, 2.6 µm, 40 °C, 0.4 mL/min, estimated dead time 0.55 min; A: water + 0.2% formic acid; B: acetonitrile + 0.2% formic acid; gradient (min/%B) 0/5 0.5/5 7/95 8/95 8.5/5 12/5
measurement.parameters: stereoisomer not certain
quantity.kind: LC retention time (min)

molecule="O=C(OC1Cc2c(O)cc(O)cc2OC1c1cc(O)c(O)c(O)c1)c1cc(O)c(O)c(O)c1 (single isomer, unassigned; (-)) [(-)-Epigallocatechin gallate]" quantity_kind="LC retention time" units_of_measure=min measured_result=4.38
molecule="O=c1oc2c(O)c(O)ccc2c2cc(O)c(O)cc12 [Urolithin D]" quantity_kind="LC retention time" units_of_measure=min measured_result=4.68
molecule="COc1cc(C(=O)O)ccc1OS(=O)(=O)O [Vanillic acid-4-O-sulfate]" quantity_kind="LC retention time" units_of_measure=min measured_result=3.13

[A] O=C(O)c1ccc(O)c(OS(=O)(=O)O)c1 [protocatechuic acid-3-O-sulfate]
[B] COc1cc(C=CC(=O)NCC(=O)O)ccc1O [Feruloylglycine]
Thinking about recorded LC retention time values, which is higher, A or B ? Answer format: the label of the selected item.
B
(B: 4.33 min, A: 2.38 min)
